biological target: single-chain tethered dimer of HIV protease (Human immunodeficiency virus 1, UniProt P04585); assay: biochemical; type: biochemical; design: fused on or other part: A second copy of the same protease unit is joined to the first by a short peptide tether, giving one polypeptide; details: read-out: HPLC K1; Table 2d; HIV protease inhibition, HPLC method
# Ki listing for each entry below

- COMPOUND: "O=C1N(Cc2ccc3[nH]ncc3c2)C(Cc2ccccc2)C(O)C(O)C(Cc2ccccc2)N1Cc1ccc2[nH]ncc2c1 (centres unmarked) [15CX]"
  Ki: "< 10 nM"
- COMPOUND: "O=C1N(Cc2cccc(C#CCO)c2)C(Cc2ccccc2)C(O)C(O)C(Cc2ccccc2)N1Cc1cccc(C#CCO)c1 (centres unmarked) [Example 15XL]"
  Ki: "< 10 nM"
- COMPOUND: "O=C1N(Cc2cccc(C(O)C(F)(F)F)c2)C(Cc2ccccc2)C(O)C(O)C(Cc2ccccc2)N1Cc1cccc(C(O)C(F)(F)F)c1 (centres unmarked) [Example 15XI]"
  Ki: "< 10 nM"
- COMPOUND: "O=C(c1cccc(CN2C(=O)N(Cc3cccc(C(=O)c4cc[nH]n4)c3)C(Cc3ccccc3)C(O)C(O)C2Cc2ccccc2)c1)c1cc[nH]n1 (centres unmarked) [Example 15YN]"
  Ki: "< 10 nM"
- COMPOUND: "C[Si](C)(C)CCOCn1cncc1-c1cccc(CN2C(=O)N(Cc3cccc(-c4cncn4COCC[Si](C)(C)C)c3)C(Cc3ccccc3)C(O)C(O)C2Cc2ccccc2)c1 (centres unmarked) [Example 15BJ]"
  Ki: "< 10 nM"
- COMPOUND: "NC(=O)Cc1cccc(CN2C(=O)N(Cc3cccc(CC(N)=O)c3)C(Cc3ccccc3)C(O)C(O)C2Cc2ccccc2)c1 (centres unmarked) [15DV]"
  Ki: "< 10 nM"
- COMPOUND: "CCN(CC)Cc1cccc(CN2C(=O)N(Cc3cccc(CN(CC)CC)c3)C(Cc3ccccc3)C(O)C(O)C2Cc2ccccc2)c1 (centres unmarked) [Example 15XF]"
  Ki: "10 to 1000 nM"
- COMPOUND: "O=C1NC(Cc2ccccc2)C(O)C(O)C(Cc2ccccc2)N1Cc1cccc(-c2cc[nH]n2)c1 (centres unmarked) [Example 15BX]"
  Ki: "< 10 nM"
- COMPOUND: "O=C1N(Cc2ccc(O)c(O)c2)C(Cc2ccccc2)C(O)C(O)C(Cc2ccccc2)N1CC1CC1 (centres unmarked) [15AG]"
  Ki: "< 10 nM"
- COMPOUND: "Cc1ccc(S(=O)(=O)NN=Cc2cccc(CN3C(=O)N(Cc4cccc(C=NNS(=O)(=O)c5ccc(C)cc5)c4)C(Cc4ccccc4)C(O)C(O)C3Cc3ccccc3)c2)cc1 (centres unmarked) [Example 15YF]"
  Ki: "10 to 1000 nM"
- COMPOUND: "O=C1N(Cc2cccnc2)C(Cc2ccccc2)C(O)C(O)C(Cc2ccccc2)N1Cc1cccc(-c2cc[nH]n2)c1 (centres unmarked) [Example 15BU]"
  Ki: "< 10 nM"
- COMPOUND: "NC(=NO)c1ccc(CN2C(=O)N(Cc3ccc(CO)cc3)C(Cc3ccccc3)C(O)C(O)C2Cc2ccccc2)cc1 (centres unmarked) [15AI]"
  Ki: "10 to 1000 nM"
- COMPOUND: "O=C(NCCN1CCOCC1)c1cccc(CN2C(=O)N(Cc3cccc(-c4cc[nH]n4)c3)C(Cc3ccccc3)C(O)C(O)C2Cc2ccccc2)c1 (centres unmarked) [Example 15BT]"
  Ki: "< 10 nM"
- COMPOUND: "NC(=NO)c1cccc(CN2C(=O)N(Cc3ccc(O)cc3)C(Cc3ccccc3)C(O)C(O)C2Cc2ccccc2)c1 (centres unmarked) [15AU]"
  Ki: "< 10 nM"
- COMPOUND: "N#Cc1cc(CN2C(=O)N(Cc3ccc(F)c(C#N)c3)C(Cc3ccccc3)C(O)C(O)C2Cc2ccccc2)ccc1F (centres unmarked) [15EC]"
  Ki: "10 to 1000 nM"
- COMPOUND: "O=C1N(Cc2cccc(C(=O)C(F)(F)F)c2)C(Cc2ccccc2)C(O)C(O)C(Cc2ccccc2)N1Cc1cccc(C(=O)C(F)(F)F)c1 (centres unmarked) [Example 15XM]"
  Ki: "< 10 nM"
- COMPOUND: "NS(=O)(=O)c1cccc(CN2C(=O)N(Cc3cccc(S(N)(=O)=O)c3)C(Cc3ccccc3)C(O)C(O)C2Cc2ccccc2)c1 (centres unmarked) [15XQ]"
  Ki: "< 10 nM"
- COMPOUND: "O=C1N(Cc2cccc(OCCN3CCOCC3)c2)C(Cc2ccccc2)C(O)C(O)C(Cc2ccccc2)N1Cc1cccc(OCCN2CCOCC2)c1 (centres unmarked) [Example 15YG]"
  Ki: "10 to 1000 nM"
- COMPOUND: "CC(O)c1cccc(CN2C(=O)N(Cc3cccc(C(C)O)c3)C(Cc3ccccc3)C(O)C(O)C2Cc2ccccc2)c1 (centres unmarked) [15XD]"
  Ki: "< 10 nM"
- COMPOUND: "O=C1N(Cc2ccc(CO)cc2)C(Cc2ccccc2)C(O)C(O)C(Cc2ccccc2)N1Cc1ccccc1O (centres unmarked) [15EA]"
  Ki: "< 10 nM"
- COMPOUND: "O=C1N(Cc2cccc(-c3ncc[nH]3)c2)C(Cc2ccccc2)C(O)C(O)C(Cc2ccccc2)N1Cc1cccc(-c2ncc[nH]2)c1 (centres unmarked) [Example 15BR]"
  Ki: "< 10 nM"
- COMPOUND: "O=C(O)c1ccc(CN2C(=O)N(Cc3ccc(CO)cc3)C(Cc3ccccc3)C(O)C(O)C2Cc2ccccc2)cc1 (centres unmarked) [15XA]"
  Ki: "< 10 nM"
- COMPOUND: "CCC(=O)c1cccc(CN2C(=O)N(Cc3cccc(C(=O)CC)c3)C(Cc3ccccc3)C(O)C(O)C2Cc2ccccc2)c1 (centres unmarked) [Example 15XN]"
  Ki: "< 10 nM"
- COMPOUND: "O=C(NCc1cccnc1)c1cccc(CN2C(=O)N(Cc3cccc(-c4cc[nH]n4)c3)C(Cc3ccccc3)C(O)C(O)C2Cc2ccccc2)c1 (centres unmarked) [Example 15BZ]"
  Ki: "< 10 nM"
- COMPOUND: "NC(=NO)c1cccc(CN2C(=O)N(CC3CC3)C(Cc3ccccc3)C(O)C(O)C2Cc2ccccc2)c1 (centres unmarked) [15AF]"
  Ki: "< 10 nM"
- COMPOUND: "CN(C)S(=O)(=O)n1ccnc1-c1cccc(CN2C(=O)N(Cc3cccc(-c4nccn4S(=O)(=O)N(C)C)c3)C(Cc3ccccc3)C(O)C(O)C2Cc2ccccc2)c1 (centres unmarked) [Example 15BM]"
  Ki: "10 to 1000 nM"

---

target: single-chain tethered dimer of HIV protease (Human immunodeficiency virus 1, UniProt P04585); experiment: biochemical; assay type: biochemical; design: fused on or other part: A second copy of the same protease unit is joined to the first by a short peptide tether, giving one polypeptide; conditions: Table 2d; HIV protease inhibition, HPLC method; read-out: HPLC K1
pKi: −log10 of the molar value.
PROPERTY MEASURED: pKi

- COMPOUND: "O=C1N(Cc2ccc(F)c(CO)c2)C(Cc2ccccc2)C(O)C(O)C(Cc2ccccc2)N1Cc1ccc(F)c(CO)c1 (stereo not shown) [15EG]"
  PROPERTY MEASURED: "pKi"
  VALUE MEASURED: "> 8.00"
- COMPOUND: "O=C(NCc1cccnc1)c1cccc(CN2C(=O)N(CC3CC3)C(Cc3ccccc3)C(O)C(O)C2Cc2ccccc2)c1 (stereo not shown) [15YD]"
  PROPERTY MEASURED: "pKi"
  VALUE MEASURED: "> 8.00"
- COMPOUND: "NCc1ccc(CN2C(=O)N(Cc3ccc(CO)cc3)C(Cc3ccccc3)C(O)C(O)C2Cc2ccccc2)cc1 (stereo not shown) [Example 15YH]"
  PROPERTY MEASURED: "pKi"
  VALUE MEASURED: "6.00 to 8.00"
- COMPOUND: "CN(C)CCNC(=O)c1cccc(CN2C(=O)N(Cc3cccc(C(=O)NCCN(C)C)c3)C(Cc3ccccc3)C(O)C(O)C2Cc2ccccc2)c1 (stereo not shown) [15XV]"
  PROPERTY MEASURED: "pKi"
  VALUE MEASURED: "> 8.00"

---

# IC90 listing for each entry below
test system: HIV-1 (RF) in MT-2 cells; assay: microbe, parasite or virus in culture; format: cell-based; conditions: Human immunodeficiency virus 1, MT2, 48 h, Table 2d; class symbols; read-out: IC90

- MOLECULE: "NCCCCCCN1C(=O)N(Cc2ccccc2)C(Cc2ccccc2)C(O)C(O)C1Cc1ccccc1 (stereo not drawn) [Example 12B]"
  SUBJECT OF TEST: "HIV-1 (RF) in MT-2 cells"
  IC90: "> 100 µg/mL"
- MOLECULE: "CSc1cccc(CN2C(=O)N(Cc3cccc(SC)c3)C(Cc3ccccc3)C(O)C(O)C2Cc2ccccc2)c1 (stereo not drawn) [Example 12R]"
  SUBJECT OF TEST: "HIV-1 (RF) in MT-2 cells"
  IC90: "< 10 µg/mL"
- MOLECULE: "Nc1cccc(CN2C(=O)N(Cc3ccc(CO)cc3)C(Cc3ccccc3)C(O)C(O)C2Cc2ccccc2)c1 (stereo not drawn) [15A]"
  SUBJECT OF TEST: "HIV-1 (RF) in MT-2 cells"
  IC90: "< 10 µg/mL"
- MOLECULE: "O=C1NC(Cc2ccccc2)C(O)C(O)C(Cc2ccccc2)N1CCCCCCCO (stereo not drawn) [Example 12o]"
  SUBJECT OF TEST: "HIV-1 (RF) in MT-2 cells"
  IC90: "10 to 100 µg/mL"
- MOLECULE: "CONC(=O)c1ccc(CN2C(=O)N(Cc3ccc(C(=O)NOC)cc3)C(Cc3ccccc3)C(O)C(O)C2Cc2ccccc2)cc1 (stereo not drawn) [10S]"
  SUBJECT OF TEST: "HIV-1 (RF) in MT-2 cells"
  IC90: "< 10 µg/mL"
- MOLECULE: "O=C1N(Cc2cccc(C=NOCc3ccccc3)c2)C(Cc2ccccc2)C(O)C(O)C(Cc2ccccc2)N1Cc1cccc(C=NOCc2ccccc2)c1 (stereo not drawn) [Example 9D]"
  SUBJECT OF TEST: "HIV-1 (RF) in MT-2 cells"
  IC90: "10 to 100 µg/mL"
- MOLECULE: "O=C1N(Cc2cccc(-c3nnn[nH]3)c2)C(Cc2ccccc2)C(O)C(O)C(Cc2ccccc2)N1CC1CC1 (stereo not drawn) [9U]"
  SUBJECT OF TEST: "HIV-1 (RF) in MT-2 cells"
  IC90: "< 10 µg/mL"
- MOLECULE: "CC(=O)OCCCCCCN1C(=O)N(CCCCCCO)C(Cc2ccccc2)C(O)C(O)C1Cc1ccccc1 (stereo not drawn) [Example 12V]"
  SUBJECT OF TEST: "HIV-1 (RF) in MT-2 cells"
  IC90: "< 10 µg/mL"
- MOLECULE: "O=C1N(Cc2ccc(CO)cc2)C(Cc2ccccc2)C(O)C(O)C(Cc2ccccc2)N1Cc1ccc(CO)cc1 (stereo not drawn) [Example 13M]"
  SUBJECT OF TEST: "HIV-1 (RF) in MT-2 cells"
  IC90: "< 10 µg/mL"
- MOLECULE: "CCCCN1C(=O)N(CCCC)C(Cc2ccccc2)C(O)C(O)C1Cc1ccccc1 (stereo not drawn) [Example 13R]"
  SUBJECT OF TEST: "HIV-1 (RF) in MT-2 cells"
  IC90: "< 10 µg/mL"
- MOLECULE: "COC(=O)Oc1cccc(CN2C(=O)N(Cc3cccc(OC(=O)OC)c3)C(Cc3ccccc3)C(O)C(O)C2Cc2ccccc2)c1 (stereo not drawn) [Example 9G]"
  SUBJECT OF TEST: "HIV-1 (RF) in MT-2 cells"
  IC90: "< 10 µg/mL"
- MOLECULE: "CNC(=O)c1cccc(CN2C(=O)N(Cc3cccc(C(=O)OC)c3)C(Cc3ccccc3)C(O)C(O)C2Cc2ccccc2)c1 (stereo not drawn) [11G]"
  SUBJECT OF TEST: "HIV-1 (RF) in MT-2 cells"
  IC90: "< 10 µg/mL"
- MOLECULE: "NC(=O)c1cccc(CN2C(=O)NC(Cc3ccccc3)C(O)C(O)C2Cc2ccccc2)c1 (stereo not drawn) [15WW]"
  SUBJECT OF TEST: "HIV-1 (RF) in MT-2 cells"
  IC90: "< 10 µg/mL"
- MOLECULE: "COCCCCCN1C(=O)N(CCCCCO)C(Cc2ccccc2)C(O)C(O)C1Cc1ccccc1 (stereo not drawn) [Example 15VW]"
  SUBJECT OF TEST: "HIV-1 (RF) in MT-2 cells"
  IC90: "< 10 µg/mL"
- MOLECULE: "O=C1N(CCCCCCO)C(Cc2ccccc2)C(O)C(O)C(Cc2ccccc2)N1CC1CC1 (stereo not drawn) [Example 12E]"
  SUBJECT OF TEST: "HIV-1 (RF) in MT-2 cells"
  IC90: "< 10 µg/mL"
